Source: paper PMC10847618

- EXPERIMENTAL_SYSTEM: recombinant 6xHis-CDPK1 protein (rPfCDPK1) (Plasmodium falciparum, UniProt P62344)
- Sequence (P62344 whole entry): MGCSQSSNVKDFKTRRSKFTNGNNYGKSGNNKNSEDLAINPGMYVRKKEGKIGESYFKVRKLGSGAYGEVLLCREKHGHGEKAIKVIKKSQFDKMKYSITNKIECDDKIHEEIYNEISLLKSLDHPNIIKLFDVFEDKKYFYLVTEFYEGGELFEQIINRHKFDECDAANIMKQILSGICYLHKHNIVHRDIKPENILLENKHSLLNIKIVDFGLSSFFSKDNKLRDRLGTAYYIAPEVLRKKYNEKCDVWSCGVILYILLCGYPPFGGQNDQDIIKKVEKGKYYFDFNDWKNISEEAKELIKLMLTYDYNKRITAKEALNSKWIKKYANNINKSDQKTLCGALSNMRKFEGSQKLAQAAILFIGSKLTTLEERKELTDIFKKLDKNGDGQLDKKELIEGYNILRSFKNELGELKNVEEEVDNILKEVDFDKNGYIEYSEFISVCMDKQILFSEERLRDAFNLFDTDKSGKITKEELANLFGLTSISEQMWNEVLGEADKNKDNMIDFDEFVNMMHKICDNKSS
- PROTOCOL_TEXT: Microscale thermophoresis
pKd: −log10 of the molar value.
Collected pKd values appear next to each entry.
OBSERVABLE: pKd

molecule="Cc1ccccc1C(=O)/C=C/c1cn(Cc2cn(-c3ccnc4cc(Cl)ccc34)nn2)c2ccccc12 [7r]" experimental_system="recombinant 6xHis-CDPK1 protein (rPfCDPK1) (Plasmodium falciparum, UniProt P62344)" value_reported=5.14
molecule="COc1ccccc1C(=O)/C=C/c1cn(Cc2cn(-c3ccnc4cc(Cl)ccc34)nn2)c2ccccc12 [7l]" experimental_system="recombinant 6xHis-CDPK1 protein (rPfCDPK1) (Plasmodium falciparum, UniProt P62344)" value_reported=4.76
